Reference source for all entries: patent US20240409645A1

Target: T1, human IL-2Rβ (human, UniProt P14784 27-240, limits assumed)
T1 construct: Recombinant human IL-2Rβ protein, coated on ELISA plates or immobilized on a CM5 chip; also called hu IL-2R; interleukin 2 receptor β-chain
T1 sequence: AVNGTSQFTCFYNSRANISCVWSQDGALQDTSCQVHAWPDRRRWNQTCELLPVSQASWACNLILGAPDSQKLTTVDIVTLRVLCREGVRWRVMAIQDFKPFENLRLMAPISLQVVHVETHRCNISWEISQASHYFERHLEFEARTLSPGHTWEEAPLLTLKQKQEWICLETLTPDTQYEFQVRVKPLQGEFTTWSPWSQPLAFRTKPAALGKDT
Experiment: P.E. binding ELISA, human IL-2Rβ coated
experimental-endpoint: OD450 nm (P.E. binding ELISA) (OD450 nm)

FJ1427_P035MP06D04 (VHH, Soluble VHH in periplasmic extract (P.E.); also called Clone nr) VHH: QVQLQESGGGLVQAGGSLRLSCVVSGDVFVRYTMAWFRQAPGKEREFVAVVTDSGRTTEYVDSVKGRFTVSRDNAKNTVYLQMNNLKPEDTAVYYCAANTDYFQIRSVDNNAWGQGTQVTVSS    0.189
FJ1427_P035MP06A09 (VHH, Soluble VHH in periplasmic extract (P.E.); also called Clone nr) VHH: EVQLVESGGGLVQAGGSLRLSCAASGDVFVRYTMAWFRQAPGKEREFVASVTDSGRTTDYVDSVKGRFTVSRDNAKNTVYLQMNNLKPEDTAVYYCAANTDYFQIKSLDRNTWGQGTQVTVSS    0.192
FJ1427_P035MP06H03 (VHH, Soluble VHH in periplasmic extract (P.E.); also called Clone nr) VHH: QVQLVESGGGLVQAGGSLRLSCAVSGDVFVRYTMAWFRQAPGKEREFVASVTDSGRTTEYVDSVKGRFTVSRDNAKNTAYLQMNNLKPEDTAVYYCAANTDYFQIRSLDLNTWGQGTQVTVSS    0.239
FJ1427_P035MP06H02 (VHH, Soluble VHH in periplasmic extract (P.E.); also called Clone nr) VHH: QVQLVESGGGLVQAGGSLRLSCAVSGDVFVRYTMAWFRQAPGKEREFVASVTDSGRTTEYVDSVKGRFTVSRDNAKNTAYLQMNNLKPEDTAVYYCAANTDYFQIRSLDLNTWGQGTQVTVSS    0.371
